# credit: patent US7825068B2

Test system: Pyrenophora teres
Assay: In vivo test on Pyrenophora teres (preventive spray on barley plants)
Settings: 330 ppm; comparison compounds of WO 2004/074280
parameter: efficacy against Pyrenophora teres

For orientation, consider the following solved cases.
Notebook: Cc1c(C(=O)NCCc2ncc(C(F)(F)F)cc2Cl)cnn1-c1ccccc1 [Compound J9] , efficacy against Pyrenophora teres read as no efficacy

Briefly, efficacy against Pyrenophora teres measured for Cc1onc(-c2ccccc2)c1C(=O)NCCc1ncc(C(F)(F)F)cc1Cl [Compound M3] : no efficacy

The molecule listed as Cn1cccc1C(=O)NCCc1ncc(C(F)(F)F)cc1Cl [Compound F1] shows efficacy against Pyrenophora teres equal to no efficacy

Entry CC1=C(C(=O)NCCc2ncc(Cl)cc2F)SCCO1 [Compound V9] , efficacy against Pyrenophora teres reported as no efficacy

Field efficacy against Pyrenophora teres (entry O=C(NCCc1ncc(C(F)(F)F)cc1Cl)C1CCN(C(=O)OCc2ccccc2)CC1 [Compound T1] ) reads no efficacy

---
get_value(item= Cc1cc(C(=O)NCCc2nc(F)c(F)cc2F)c(C)o1 [Compound B17] , readout=efficacy against Pyrenophora teres) returns no efficacy

Per the records, this molecule ( CSc1sc(C(=O)NCCc2ncc(C(F)(F)F)cc2Cl)c(I)c1S(=O)(=O)C(C)C [Compound C10] ) has efficacy against Pyrenophora teres equal to no efficacy

Please fill in: efficacy against Pyrenophora teres reported for O=C(NCCc1ccc(Cl)cn1)c1cccnc1Cl [Compound R32] = no efficacy

For CC1=C(C(=O)NCCc2nc(Cl)ccc2Cl)SCCO1 [Compound V10] the molecule record lists efficacy against Pyrenophora teres as no efficacy

The molecule Cc1nc(-c2ccccc2)sc1C(=O)NCCc1ncc(C(F)(F)F)cc1Cl [Compound H3] showed efficacy against Pyrenophora teres equal to no efficacy
